Catalogue of molecules with associated cytotoxicity at 10 µM
experiment: Toxicity liver stage against HepG2, at 10uM; type: cell-based; design: test concentration 10 uM, cell line HepG2-A16-CD81EGFP; conditions: human, HepG2-A16-CD81EGFP cells; read-out: INHIBITION
Just the number please, in %, no unit attached.

// below: answered molecules
[
  {
    "molecule": "CCOC(=O)CSc1nnc([C@@H](N)CC(C)C)o1",
    "quantitative.result": 6.76
  },
  {
    "molecule": "CCC[C@H]1CN(CCS(C)(=O)=O)C[C@@H]1NC(=O)c1ccn(C)n1",
    "quantitative.result": 5.83
  },
  {
    "molecule": "Cn1cnnc1C1CCCN(C(=O)NCc2cc[nH]n2)C1 (stereo not given)",
    "quantitative.result": -6.73
  },
  {
    "molecule": "Cc1nc(-c2ccsc2)ccc1C(=O)NCCN1CCOCC1",
    "quantitative.result": -10.2
  },
  {
    "molecule": "N#Cc1cccc(OCc2ccoc2C(=O)N2CCCCCC2)c1",
    "quantitative.result": 9.91
  }
]

What the record says about Cc1ccc2c(c1)C1(CC2)CCN(c2nncs2)CC1 : cytotoxicity at 10 µM is 9.43

What the record says about NC(=O)[C@H]1CCCN(c2nccc(-c3c[nH]nc3-c3cccnc3)n2)C1 : cytotoxicity at 10 µM is -5.89

What the record says about CNc1cncc(C2CCN(S(C)(=O)=O)CC2)n1 : cytotoxicity at 10 µM is 3.54

What the record says about CC(C)(C)C(=O)N1CCC(c2cnc(-c3cn[nH]c3)cn2)CC1 : cytotoxicity at 10 µM is 1.16

What the record says about O=C(c1ccc(=O)[nH]n1)N1CCNCC1c1ccccc1 (stereo not given) : cytotoxicity at 10 µM is -2.44

What the record says about NC(=O)c1cncc(N2CCN(Cc3cccc4nsnc34)CC2)n1 : cytotoxicity at 10 µM is 8.15

What the record says about Cc1cccc(CN2CCc3ncnc(-c4ccsc4)c3CC2)n1 : cytotoxicity at 10 µM is -78.2

What the record says about COC(=O)C(C)(C)NC(=O)C1CC(=O)N(CC(F)(F)F)C1 (stereo not given) : cytotoxicity at 10 µM is -141

What the record says about c1ccc(C2CCCN2Cc2nnnn2C2CC2)cc1 (stereo not given) : cytotoxicity at 10 µM is -5.04

What the record says about COc1ccc2cc(C3CN(C(=O)CCNC(C)=O)CCO3)ccc2c1 (stereo not given) : cytotoxicity at 10 µM is 9.85

====

experiment: Toxicity liver stage against HepG2, at 10uM; assay type: cell-based; design: test concentration 10 uM, cell line HepG2-A16-CD81EGFP; conditions: human, HepG2-A16-CD81EGFP cells; read-out: INHIBITION
Catalogue of compounds with associated cytotoxicity at 10 µM
Just the number please, in %, no unit attached.

// below: answered compounds
[
  {
    "compound": "c1ccc(-c2cnc(CN(Cc3cccnc3)CC3CCCO3)o2)cc1 (stereo unspecified)",
    "measurement.units": "%",
    "cytotoxicity at 10 µM": 17.5
  },
  {
    "compound": "Cc1nc(C2CCCN2C(=O)CCCn2cncn2)no1 (stereo unspecified)",
    "measurement.units": "%",
    "cytotoxicity at 10 µM": 6.62
  }
]

What the record says about O=C(c1ccnnc1)N1CCc2onc(CN3CCCC3)c2C1 : cytotoxicity at 10 µM is 7.31

What the record says about COc1cc(CNCc2ccnc(N3CCOCC3)c2)cc(Cl)c1OC : cytotoxicity at 10 µM is -8.7

What the record says about CN(C)c1cc(C2CCCN(S(=O)(=O)C3CCCC3)C2)ccn1 (stereo unspecified) : cytotoxicity at 10 µM is -20.8

What the record says about O=C(NC1CCc2c(ccc(=O)n2CC2CC2)C1)c1cscn1 (stereo unspecified) : cytotoxicity at 10 µM is -104

====

assay: Toxicity liver stage against HepG2, at 10uM; type: cell-based; design: test concentration 10 uM, cell line HepG2-A16-CD81EGFP; conditions: human, HepG2-A16-CD81EGFP cells; read-out: INHIBITION
observation.type: cytotoxicity at 10 µM (%)
Just the number please, in %, no unit attached.

[
  {
    "smiles.input": "COC(=O)c1cccn1C1CCN(Cc2nc3ccccc3o2)CC1",
    "cytotoxicity at 10 µM / %": 1.81
  },
  {
    "smiles.input": "c1n[nH]cc1CCCN1CCC(OC2CCCCC2)CC1",
    "cytotoxicity at 10 µM / %": 2.97
  },
  {
    "smiles.input": "O=C([C@H]1C[C@@H]2CCN(C3CCOCC3)C[C@@H]2O1)N1CCOCC1",
    "cytotoxicity at 10 µM / %": -2.56
  }
]

What the record says about CC(C)NC(=O)c1n[nH]c(-n2cnnc2)n1 : cytotoxicity at 10 µM is 1.08

What the record says about COCCNC(=O)c1cc(COc2cncc(Cl)c2)on1 : cytotoxicity at 10 µM is 0.141

What the record says about CC(=O)Nc1c(C)noc1C=Cc1ccc(S(=O)(=O)NC2CC2)cc1 : cytotoxicity at 10 µM is 0.54

====

Catalogue of molecules with associated cytotoxicity at 10 µM
assay: Toxicity liver stage against HepG2, at 10uM; assay type: cell-based; set-up: test concentration 10 uM, cell line HepG2-A16-CD81EGFP; conditions: human, HepG2-A16-CD81EGFP cells; read-out: INHIBITION
Just the number please, in %, no unit attached.

[
  {
    "molecule": "COc1cc(NCc2cccnc2)c(-c2nn[nH]n2)cc1OC",
    "measurement.units": "%",
    "quantitative.result": 7.88
  },
  {
    "molecule": "NC(=O)CSc1ccccc1NCc1nc(C2CC2)no1",
    "measurement.units": "%",
    "quantitative.result": 1.12
  },
  {
    "molecule": "Cc1nnc([C@@]23CCO[C@@H]2CCN(Cc2cccc4ccccc24)C3)o1",
    "measurement.units": "%",
    "quantitative.result": -103
  },
  {
    "molecule": "O=S(=O)(c1ccccc1)N1CCC2(CCCN2Cc2cccc(Cl)c2)C1 (stereo unspecified)",
    "measurement.units": "%",
    "quantitative.result": -130
  }
]

What the record says about Cc1cnn(C2CN(c3ccccc3S(=O)(=O)C(F)(F)F)C2)c1 : cytotoxicity at 10 µM is 11.5

What the record says about OCC1CCCN1c1cc(NCc2cccc3cccnc23)ncn1 (stereo unspecified) : cytotoxicity at 10 µM is -15.6

What the record says about CC(C)(C)OC(=O)NC1CCCN(Cc2cccs2)C1 (stereo unspecified) : cytotoxicity at 10 µM is -40.7

====

assay: Toxicity liver stage against HepG2, at 10uM; format: cell-based; set-up: test concentration 10 uM, cell line HepG2-A16-CD81EGFP; conditions: human, HepG2-A16-CD81EGFP cells; read-out: INHIBITION
observation.type: cytotoxicity at 10 µM (%)
Just the number please, in %, no unit attached.

// below: answered molecules
[
  {
    "molecule": "Cc1cc(C)n(CC2CN(CC(=O)NCc3cccs3)CCO2)n1 (centres undefined)",
    "quantitative.result": -9.89
  },
  {
    "molecule": "CN1CC(=O)N(c2ccccc2)CC12CCN(C(=O)c1ccnnc1)C2 (centres undefined)",
    "quantitative.result": 3.39
  },
  {
    "molecule": "O=C(O)C1(n2ccnc2)CCN(Cc2ccc3occc3c2)CC1",
    "quantitative.result": -4.31
  },
  {
    "molecule": "Cn1nc(C2CNCCO2)cc1CCOc1ccc(Cl)cc1 (centres undefined)",
    "quantitative.result": -7.72
  },
  {
    "molecule": "COCCNC(=O)CN1CC=C(n2c(C)nc(=O)c3ccccc32)CC1",
    "quantitative.result": -5.45
  }
]

What the record says about COc1cc(N2CCC3(CCN(Cc4nccs4)CC3)C2)ncn1 : cytotoxicity at 10 µM is -36

What the record says about CN1C(=O)C2(CCN(C(=O)c3ccccc3)CC2)c2cccc(F)c21 : cytotoxicity at 10 µM is 4.74

What the record says about CC(C)=CCN1C[C@@H]2CC[C@H]1CN(C(=O)c1ccc(S(N)(=O)=O)cc1)C2 : cytotoxicity at 10 µM is -5.96

What the record says about CN1CCCC(c2cncc(-c3cccc(C(F)(F)F)c3)n2)C1 (centres undefined) : cytotoxicity at 10 µM is 8.92

What the record says about Cc1cnn(C2CN(CC(=O)NCC3(c4ccccc4)CC3)C2)c1 : cytotoxicity at 10 µM is -10.9

What the record says about CN(C)C(=O)CNC(=O)Nc1cccc(Cl)c1SC(F)F : cytotoxicity at 10 µM is 1.31

What the record says about CN1C(=O)C2(CCCN(C(=O)c3ccc(=O)n(C)n3)C2)c2ccccc21 (centres undefined) : cytotoxicity at 10 µM is 4.65

What the record says about c1ccc(-c2ccc(CN3CCOC(Cn4cncn4)C3)cc2)cc1 (centres undefined) : cytotoxicity at 10 µM is 9.96

What the record says about CCC(C(=O)NCc1cccnc1)N(c1cccc(C)c1)S(C)(=O)=O (centres undefined) : cytotoxicity at 10 µM is 2.57

What the record says about COCC(=O)N1CCN(Cc2cccnc2)c2ncccc2C1 : cytotoxicity at 10 µM is 10.2

What the record says about CS(=O)(=O)N1CC(c2nc(N)ncc2-c2ccc(F)cc2)C1 : cytotoxicity at 10 µM is -3.49

What the record says about CCN1CCC(CC(=O)NCCc2nc(N)cc(O)n2)CC1 : cytotoxicity at 10 µM is 0.821

What the record says about CC(C)N1CC(C(=O)NC(C)(C)CNC(=O)OC(C)(C)C)CC1=O (centres undefined) : cytotoxicity at 10 µM is -9.96

What the record says about COc1ccc(CN(C(=O)C2CCCS2)c2ccncc2)cc1 (centres undefined) : cytotoxicity at 10 µM is 5.57

What the record says about CCc1ccc(CN(C/C=C/c2ccccc2)CCOC)nc1 : cytotoxicity at 10 µM is 10.2

What the record says about O=C1NC2(CCc3ccccc31)CCN(Cc1cccnc1)C2 (centres undefined) : cytotoxicity at 10 µM is 0.9

What the record says about Cc1ccc(C)c2c(O)cc(CNCC(N)=O)nc12 : cytotoxicity at 10 µM is -3.35

What the record says about CN(C)c1cc(C(=O)NCC2(c3cccc(F)c3)CCOCC2)ccn1 : cytotoxicity at 10 µM is 8.8

What the record says about Cn1c(N)nnc1SCc1ccc(Cl)cc1Br : cytotoxicity at 10 µM is 1.48
